B1: Hairpin Ribozyme (parent)
chain: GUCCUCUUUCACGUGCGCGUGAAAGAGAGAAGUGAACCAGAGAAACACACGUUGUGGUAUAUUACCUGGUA

variants of: B1; assay: self-cleavage, relative activity (ratio to wild type); higher = more cleavage; co-transcriptional
# label = 1 (yes) if self-cleavage >= 0.2 else 0 (no)

Data request: hey, is self-cleavage for this one >= 0.2? G27U A36U
Data returned: 0 (no)

Data request: hey, is self-cleavage for this one >= 0.2? U5A C65G
Data returned: 1 (yes)

Data request: hey, is self-cleavage for this one >= 0.2? A39G G56A
Data returned: 0 (no)

Data request: hey, is self-cleavage for this one >= 0.2? G25U U67G
Data returned: 0 (no)

Data request: hey, is self-cleavage for this one >= 0.2? G19U G40A
Data returned: 1 (yes)

Data request: hey, is self-cleavage for this one >= 0.2? U58C U63A
Data returned: 1 (yes)

Data request: hey, is self-cleavage for this one >= 0.2? U62C U70C
Data returned: 1 (yes)

Data request: hey, is self-cleavage for this one >= 0.2? C12U U55C
Data returned: 1 (yes)

Data request: hey, is self-cleavage for this one >= 0.2? U52C A71U
Data returned: 1 (yes)

Data request: hey, is self-cleavage for this one >= 0.2? A45G A49U
Data returned: 0 (no)

Data request: hey, is self-cleavage for this one >= 0.2? G42C U58A
Data returned: 1 (yes)

Data request: hey, is self-cleavage for this one >= 0.2? A61C G69U
Data returned: 0 (no)

Data request: hey, is self-cleavage for this one >= 0.2? C6G A22U
Data returned: 1 (yes)

Data request: hey, is self-cleavage for this one >= 0.2? A39C A45C
Data returned: 0 (no)

Data request: hey, is self-cleavage for this one >= 0.2? U2G A26C
Data returned: 0 (no)

Data request: hey, is self-cleavage for this one >= 0.2? A61U U62G
Data returned: 0 (no)

Data request: hey, is self-cleavage for this one >= 0.2? A36C C46U
Data returned: 0 (no)

Data request: hey, is self-cleavage for this one >= 0.2? A24U C38U
Data returned: 1 (yes)

Data request: hey, is self-cleavage for this one >= 0.2? A64U G69C
Data returned: 1 (yes)

Data request: hey, is self-cleavage for this one >= 0.2? G42U U67G
Data returned: 0 (no)

Data request: hey, is self-cleavage for this one >= 0.2? U52C A64G
Data returned: 1 (yes)

Data request: hey, is self-cleavage for this one >= 0.2? A35C U67A
Data returned: 1 (yes)

Data request: hey, is self-cleavage for this one >= 0.2? U2A C50A
Data returned: 1 (yes)

Data request: hey, is self-cleavage for this one >= 0.2? A41U U52C
Data returned: 1 (yes)

Data request: hey, is self-cleavage for this one >= 0.2? U5G G32U
Data returned: 0 (no)

Data request: hey, is self-cleavage for this one >= 0.2? C18G U52G
Data returned: 1 (yes)

Data request: hey, is self-cleavage for this one >= 0.2? C10U C66A
Data returned: 0 (no)

Data request: hey, is self-cleavage for this one >= 0.2? G27A C66G
Data returned: 0 (no)

Data request: hey, is self-cleavage for this one >= 0.2? A24C A43U
Data returned: 0 (no)

Data request: hey, is self-cleavage for this one >= 0.2? G57C C65A
Data returned: 0 (no)

Data request: hey, is self-cleavage for this one >= 0.2? U7G U70A
Data returned: 1 (yes)

Data request: hey, is self-cleavage for this one >= 0.2? A30G A39C
Data returned: 0 (no)

Data request: hey, is self-cleavage for this one >= 0.2? A11G G17U
Data returned: 1 (yes)

Data request: hey, is self-cleavage for this one >= 0.2? G25U A47G
Data returned: 0 (no)

Data request: hey, is self-cleavage for this one >= 0.2? C37U A49C
Data returned: 0 (no)

Data request: hey, is self-cleavage for this one >= 0.2? U52A A61C
Data returned: 1 (yes)

Data request: hey, is self-cleavage for this one >= 0.2? G27C U60C
Data returned: 1 (yes)

Data request: hey, is self-cleavage for this one >= 0.2? C12G A45U
Data returned: 0 (no)
